The entries below are paired with their reported EC50 (cAMP reporter).
- TARGET: GLP-1 receptor (UniProt P43220 24-463, limits assumed)
- Sequence (P43220 24-463 limits assumed): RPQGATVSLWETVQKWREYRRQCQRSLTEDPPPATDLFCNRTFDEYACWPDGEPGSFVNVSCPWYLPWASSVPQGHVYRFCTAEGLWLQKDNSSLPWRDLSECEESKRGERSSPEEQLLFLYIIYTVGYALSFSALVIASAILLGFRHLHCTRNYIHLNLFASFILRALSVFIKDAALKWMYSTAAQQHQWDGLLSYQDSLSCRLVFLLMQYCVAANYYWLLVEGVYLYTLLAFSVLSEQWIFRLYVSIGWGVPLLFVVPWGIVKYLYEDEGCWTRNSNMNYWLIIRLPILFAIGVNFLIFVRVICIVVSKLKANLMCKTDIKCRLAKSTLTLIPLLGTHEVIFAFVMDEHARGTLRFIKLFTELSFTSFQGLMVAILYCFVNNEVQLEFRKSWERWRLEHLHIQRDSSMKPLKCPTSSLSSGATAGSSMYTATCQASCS
- TEST_DESCRIPTION: cell-based or functional assay
*1 amine or outer side, *2 acyl side, *3 side chain or, on linkers, in order; H or OH if unused. Where no end group is shown, it is not given here. Side-chain parts run from the residue outwards. [ ]: non-standard residue; d: D form. The star is where a group is joined. γGlu = O=C(O)[C@H](CCC(=O)[*:2])N[*:1]; Palmitoyl = CCCCCCCCCCCCCCCC(=O)*; 40K‑ME = not defined here; 40K‑TE = not defined here; Aib = CC(C)(N)C(=O)O
Return type: number; implicit unit nM.

Query: Would you kindly share the measured EC50 (cAMP reporter) for Y[Aib]EGTFISDYSIYLDKQAA[Aib]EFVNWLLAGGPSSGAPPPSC(40K‑TE)-NH2 (not fully specified; reading uncertain) [peptide of SEQ ID NO: 72] ?
Reply: 2.69

Query: Any idea what EC50 (cAMP reporter) was measured for Y[Aib]QGTFTSDYSIYLDKQAA[Aib]EFVC(40K‑ME)WLLAGGPSSGAPPPSK(Palmitoyl)-NH2 (not fully specified; reading uncertain) [peptide of SEQ ID NO: 70] ?
Reply: 0.007

Query: EC50 (cAMP reporter) lookup needed for Y[Aib]QGTFTSDK([γGlu-Palmitoyl])SIYLDKQAA[Aib]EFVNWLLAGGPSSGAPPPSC(40K‑ME)-NH2 (reading uncertain) [peptide of SEQ ID NO: 69] , thanks.
Reply: 0.02

Query: Please report the recorded EC50 (cAMP reporter) for Y[dS]QGTFTSDYSIYLDKQAA[Aib]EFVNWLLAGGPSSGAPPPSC(40K‑TE)-NH2 (reading uncertain) [peptide of SEQ ID NO: 51] .
Reply: 0.572
